Biological target: DRB3*0101 (Homo sapiens, UniProt P01903+P79483)
Construct: expressed in transfected cells; host or cells: transfected fibroblasts TR81.19
Experiment: Class II peptide-binding assay DRB3*0101 (DR52a)
experimental readout: IC50 (µM)
Lab book: enter the figure in µM, no units written.

// field: IC50; key: "CC[C@H](C)[C@H](NC(=O)[C@H](Cc1ccc(O)cc1)NC(=O)[C@@H]1CCCN1C(=O)[C@H](CC(=O)O)NC(=O)[C@H](CCC(=O)O)NC(=O)[C@H](CC(C)C)NC(=O)[C@@H](NC(=O)[C@H](C)N)C(C)C)C(=O)N[C@@H](CC(C)C)C(=O)N[C@@H](CC(C)C)C(=O)N[C@H](C(=O)N[C@@H](CO)C(=O)N[C@@H](CO)C(=O)N[C@@H](CCCCN)C(=O)N[C@H](C(=O)N[C@@H](CO)C(=O)O)C(C)C)C(C)C" ; value = 5

----------
Biological target: DRB4*0101 (Homo sapiens, UniProt P01903+P13762, G164S)
Construct: expressed in transfected cells; host or cells: transfected fibroblasts L257.6
Assay: Class II peptide-binding assay DRB4*0101 (DRw53)
Details: inhibition of radiolabeled probe binding; — read as no appreciable binding
Ends that are not written are not given here.
experimental readout: pIC50
Keep in mind that pIC50 stands for -log10 of concentration in molar terms.

// field: pIC50; key: "LLKDLEEGIQTLMGR" ; value = 5.43

----------
Target: DRB1*0101 (Homo sapiens, UniProt P01903+P01911, A100R/D57E/F55L/F60I/F76Y/I96L/L162R/M171V/P40L/Q125E/R42F/V115G/Y59C)
Construct: Epstein-Barr virus (EBV) transformed homozygous cell lines were used as sources of human HLA Class II molecules; endogenous in cells; host or cells: LG2 (EBV-transformed homozygous B cell line)
Assay: Class II peptide-binding assay DRB1*0101 (DR1)
The entries below are paired with their reported IC50.
Lab book: enter the figure in nM, no units written.

Study these solved cases before continuing.
[
  {
    "smiles structure": "CC(C)C[C@H](NC(=O)[C@H](Cc1c[nH]cn1)NC(=O)[C@H](CC(=O)O)NC(=O)[C@H](CC(C)C)NC(=O)[C@@H](NC(=O)[C@H](CC(N)=O)NC(=O)[C@@H](N)CC(=O)O)C(C)C)C(=O)N[C@H](C(=O)NCC(=O)N[C@@H](CCCNC(=N)N)C(=O)N[C@@H](CO)C(=O)N[C@@H](CS)C(=O)O)[C@@H](C)O",
    "IC50, nM": 455
  },
  {
    "smiles structure": "CC[C@H](C)[C@H](NC(=O)[C@@H](NC(=O)[C@H](CCCCN)NC(=O)[C@H](CCC(=O)O)NC(=O)[C@H](CC(C)C)NC(=O)[C@H](CC(C)C)NC(=O)[C@@H]1CCCN1C(=O)[C@H](CC(C)C)NC(=O)[C@@H](N)CC(C)C)C(C)C)C(=O)NCC(=O)N[C@@H](C)C(=O)NCC(=O)N[C@@H](CCCCN)C(=O)N1CCC[C@H]1C(=O)N[C@@H](CC(C)C)C(=O)O",
    "IC50, nM": 1670
  }
]

Now let's try a different one.
// field: IC50; key: "CC(C)C[C@H](NC(=O)CN)C(=O)N[C@@H](CCCNC(=N)N)C(=O)N[C@@H](CO)C(=O)N[C@@H](CC(C)C)C(=O)N[C@H](C(=O)N[C@H](C(=O)N[C@@H](CC(C)C)C(=O)N[C@@H](CC(C)C)C(=O)N[C@@H](CC(=O)O)C(=O)N[C@@H](C)C(=O)N[C@@H](CC(C)C)C(=O)NCC(=O)N[C@@H](C)C(=O)N[C@@H](CCC(N)=O)C(=O)O)[C@@H](C)O)[C@@H](C)O" ; value = 14
